- measured-on: p97 ATPase (Mus musculus)
- assay-method-text: p97 ATPase assay
- Type: biochemical
- assay-setup: read-out: IC50 p97 ATPase; in vitro, WT p97; triplicate, ± S.D.
Consider the following compounds; for each one, report its IC50.

Form field: IC50 recorded for O=C1c2ccccc2-c2nc3nnnn3nc21 with p97 ATPase (Mus musculus) (enter value)
> 50 µM

Please state, for each entry, its recorded IC50.
1. O=C1NC(=O)c2cc(Nc3ccc(F)cc3)c(Nc3ccc(F)cc3)cc21
2. CC[n+]1c(/C=C/N(C)c2ccccc2)n(-c2ccccc2)c2ccc(-c3nc4ccccc4s3)cc21
3. Cc1ccc(NC2=CC(=O)c3sc(C)nc3C2=O)cc1
4. Cn1nc2c3c(cccc31)C(=O)c1ccccc1-2 [Compound 14, JNK inhibitor, negative control]
5. CN[C@@H]1C[C@H]2O[C@@](C)([C@@H]1OC)n1c3ccccc3c3c4c(c5c6ccccc6n2c5c31)C(=O)NC4
6. N#Cc1cnc2cnc(NCc3cccnc3)cc2c1Nc1ccc(F)c(Cl)c1

1: > 50 µM; 2: 12 µM; 3: 13 µM; 4: > 50 µM; 5: > 50 µM; 6: > 50 µM

----------
- System: Luc-ODC
- assay-method-text: Luc-ODC reporter degradation assay
- Assay type: cell-based, human
measure: Effect on Luc-ODC degradation (in words)

Data request, read-out Effect on Luc-ODC degradation (in words), for O=C1c2ccccc2-[n+]2ccc3c([nH]c4ccccc43)c21
very little activity

Which Effect on Luc-ODC degradation (in words) value belongs to CO[C@H]1[C@@H](OC)C[C@H](C)[C@@H](OC)C2=CC(=O)C=C(NC(=O)/C(C)=C/C=C\[C@H](OC)[C@@H](OC(N)=O)/C(C)=C/[C@@H]1C)C2=O ?
very little activity

What measured Effect on Luc-ODC degradation (in words) goes with O=[N+]([O-])C=Cc1ccc2c(c1)OCO2 ?
very little activity

----------
Provide the recorded pIC50 for the entries that follow.
- measured-on: p97 ATPase (Mus musculus)
- assay-method-text: p97 ATPase assay
- Assay type: biochemical
- assay-setup: IC50 p97 ATPase, in vitro, WT p97; triplicate, ± S.D.
pIC50: −log10 of the molar value.

Reference set (2 entries):
pIC50 lookup needed for CO[C@H]1[C@@H](OC)C[C@H](C)[C@@H](OC)C2=CC(=O)C=C(NC(=O)/C(C)=C/C=C\[C@H](OC)[C@@H](OC(N)=O)/C(C)=C/[C@@H]1C)C2=O , thanks.
< 4.30

Need pIC50, item O=C1c2ccccc2-[n+]2ccc3c([nH]c4ccccc43)c21
< 4.30

We now examine a further compound.
Dear colleague, I am looking for the recorded pIC50 of the following compound: COc1ccc2c(c[n+](C)c3c4cc5c(cc4ccc23)OCO5)c1OC [Compound 5, Chelerythrine chloride]
4.62

----------
- measured-on: p97 ATPase (Mus musculus)
- assay-method-text: p97 ATPase assay
- Assay type: biochemical
measure: IC50

Please report the recorded IC50 for CCN(CC)CCCCN1c2ccccc2Oc2ccc(Cl)cc21 [Compound 3, Akt inhibitor X] .
> 50 µM

----------
- measured-on: p97 ATPase (Mus musculus, UniProt Q01853)
- Sequence (Q01853 whole entry): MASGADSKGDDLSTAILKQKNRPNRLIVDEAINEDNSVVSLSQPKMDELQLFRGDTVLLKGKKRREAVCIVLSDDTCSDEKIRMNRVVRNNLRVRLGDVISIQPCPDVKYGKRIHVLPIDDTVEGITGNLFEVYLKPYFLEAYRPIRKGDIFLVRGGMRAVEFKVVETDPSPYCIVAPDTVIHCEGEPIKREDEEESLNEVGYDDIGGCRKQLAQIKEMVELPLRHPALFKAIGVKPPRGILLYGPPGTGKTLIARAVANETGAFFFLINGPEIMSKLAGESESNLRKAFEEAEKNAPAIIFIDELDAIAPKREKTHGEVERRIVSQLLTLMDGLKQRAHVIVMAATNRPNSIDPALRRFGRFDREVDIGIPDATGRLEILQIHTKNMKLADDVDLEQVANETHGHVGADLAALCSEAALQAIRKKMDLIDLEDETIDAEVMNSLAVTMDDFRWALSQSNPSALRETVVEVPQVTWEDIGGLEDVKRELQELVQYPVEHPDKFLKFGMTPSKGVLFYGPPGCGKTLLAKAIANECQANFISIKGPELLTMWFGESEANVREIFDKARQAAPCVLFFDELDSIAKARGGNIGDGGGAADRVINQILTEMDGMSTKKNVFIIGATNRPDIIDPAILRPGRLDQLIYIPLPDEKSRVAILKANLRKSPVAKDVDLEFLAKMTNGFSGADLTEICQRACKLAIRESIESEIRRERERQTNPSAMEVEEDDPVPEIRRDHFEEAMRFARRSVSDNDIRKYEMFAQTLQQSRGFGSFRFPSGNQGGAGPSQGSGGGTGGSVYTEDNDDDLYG
- assay-method-text: p97 ATPase assay
- Format: biochemical
- assay-setup: read-out: IC50 p97 ATPase; in vitro, WT p97; triplicate, ± S.D.
Provide the recorded IC50 for the entries that follow.
Write down the value, and be sure its unit follows.

Consider the molecule shown here: O=c1[nH]c2ccccc2n1C1CCN(Cc2ccc(-c3nc4cc5[nH]cnc5cc4nc3-c3ccccc3)cc2)CC1 What is its recorded IC50?
43 µM

Record request: IC50 value, item COC(=O)[C@@]1(O)C[C@H]2O[C@]1(C)n1c3ccccc3c3c4c(c5c6ccccc6n2c5c31)C(=O)NC4 [Compound 15, K-252a, Nocardiopsis sp.]
26 µM

Please report the recorded IC50 for Cc1ccc(S(=O)(=O)/C=C/C#N)cc1 .
12 µM

Would you kindly look at the next entry?
Please report the recorded IC50 for CCn1cnc2c(Nc3cccc(Cl)c3)nc(N[C@@H]3CCCC[C@@H]3N)nc21 [Compound 10, Cdk1 Inhibitor, CGP74514A] .
17 µM

Cited source for all entries: paper PMC3089497
